# Test system: MS2 coat protein
# test_method_notes: apparent KD of MS2 coat protein; designed switch direction (-1 OFF switch, 1 ON switch): -1; higher = weaker reporter binding
# condition_summary: Eterna round: R95; input ligand: FMN 200 uM
This listing pairs sequences with measured apparent KD of MS2 coat protein.
property_label: apparent KD of MS2 coat protein (nM)

{"columns": ["sequence", "endpoint_value"],
 "data": [
  ["GAGAAUUCAUAGGAUAUCGUAUGGAUAAUUUAACGAGAAGGAUGAACAUGAGGAUCACCCAUGUGGUAUCAUGG [salish99_ex6_r3_002] (puzzle: Exclusion 6)", 83.5],
  ["CAUGAUCUUCGGAUCAUGUACAUGAGGAUCACCCAUGUGACGAGUUACAUGUUUUACAAGCUUUUUGCUCGUCUUAU [Sensor v3 - Turn-off variant 1 - 14] (puzzle: Sensor v3, turn-off variant 1)", 40.3],
  ["AGAAGUAGAAACCGAUCCUACAUGAGGAUCACCCAUGUAGCAAGACGUGCACGCGAAGCUCGUCAGACUACCAGAGG [salish99_TOv1_r3_018] (puzzle: Sensor v3, turn-off variant 1)", 316],
  ["AGUACUUACACGAAAGUGUAAGUACAAUAAGCUUGUGGAACAUGAGGAUCACCCAUGUCCUCAUAAGCUCGUCUUAU [Mat - Sensor v3 - Turn-off var 2 - D28] (puzzle: Sensor v3, turn-off variant 2)", 14.5],
  ["UUUUACAAGCCAGAUCCUCACAUGAGGAUCACCCAUGUGCUCGUCUGUUUUCGCACUAUCACGUUUGUGAUAGUGCU [Level Boss var2-10] (puzzle: Sensor v3, turn-off variant 1)", 162]
]}

###

# Tested on: K4 kissing-loop RNA reporter
# test_method_notes: apparent KD of K4 kissing-loop reporter; higher = weaker reporter binding
# condition_summary: Eterna round: R107; input ligand: tryptophan 2.4 mM

{"columns": ["sequence", "system", "apparent KD of K4 kissing-loop reporter / nM"],
 "data": [
  ["UCGCAAAAGUCGGCCGCCACUCCGGGCCCUAUAAAUGGGCGCAGUGAUGUUGCGGCUAGGCCUCUGAGGACCGGGACUUUGAAGA [Esesbior]", "K4 kissing-loop RNA reporter", 131],
  ["AGCGCUGCCUGAGGAUAUAGAGACGAGUGAUGUUCGUGGAUUGAUACCAGUGAUGUUGGUCUAUUUCUAGAAGGCAGGCGAUCGU [Exclusion FMN B GF 3]", "K4 kissing-loop RNA reporter", 103],
  ["AAAUAAAGCAGUCACCCAGUGAUGUUGGAAGGAGCGUGCGAAAGCACAGGUAGGUCGCCAAAAUAAAGUGGCUGCGGCAAAGCCA [#SwitchBubble 25 #K4Early]", "K4 kissing-loop RNA reporter", 305]
]}

###

# Tested on: MS2 coat protein
# test_method_notes: apparent KD of MS2 coat protein, switch ON state; designed switch direction (-1 OFF switch, 1 ON switch): -1; higher = weaker reporter binding
# condition_summary: FMN input: 0 or 200 uM; Eterna round: R93 (includes R88 designs)
This listing pairs sequences with measured apparent KD of MS2 coat protein.

{"columns": ["sequence", "apparent KD of MS2 coat protein"],
 "data": [
  ["AGAAAACAUGAGGAUCACCCAUGUGAGGAUAUGUAAAAGAAAAGAAAAGAAAGAAGAAACAGAAGGCACAAGAA [Nynetjer]", "24.9 nM"],
  ["AAGGUACGAGGAUAUACAUAGAUACAGACACAUGUAGAUGUACAUGAGGAUCACCCAUGUAGAAGGCGUAUAUA [AJ 20]", "60.7 nM"],
  ["AAAAAACAUGAGGAUCACCCAUGUAAGGAUAUACCUAAAAAAAAAAAAAAAAAAAAUGGUAGAAGGUACAAAAA [excalibur12]", "28.1 nM"],
  ["GUAAACCUAGGAUAUACAUGAGGAUCACCCAUGUAAAAAAUAAUAAAAAGAAAAAAAAGUAGAAGGAGGUAGAU [JR_Exc003_Sub1226]", "29.1 nM"],
  ["AAGAGUACAGGAUAUAUGUGAAAAGAGUCGAAAGACUCAAAACAUGAGGAUCACCCAUGUAGAAGGGUACUCAA [Diamond 74]", "52.5 nM"],
  ["GUGUACAGAGGAUAUACGGGAGCUAGGAAACUAGCAACCUCACAUGAGGAUCACCCAUGUAGAAGGCUGUACAC [Ex2: 752]", "159 nM"],
  ["GAAAAGUGAGGAUAUUCGGAUAGGAAAACGAAAACCUAUCCGAAGAAGGCACAUGAGGAUCACCCAUGUGAAAG [Mat - Exaclusion 4 - Eli mod - D43]", "28 nM"],
  ["ACAGUUACAGGAUAUACAAAGGUAACUUCAAAGAAAACUCUACAUGAGGAUCACCCAUGUAGAAGGGUAACUGA [Ex2 Design 200 (probably): Random 17]", "14.3 nM"],
  ["GGAAAGUCAGGAUAUGGAUAAUAAAUACAAAUAGAAACAAACCAGAAGGGACAUGAGGAUCACCCAUGUAAACA [Exclusion 4 Electric]", "35.3 nM"],
  ["GAUCAGCUAGGAUAUACAUUAAUCCGAUAUGAGAAGAAAGAACAUGAGGAUCACCCAUGUAGAAGGAGCCAGUA [Ridigeer]", "40.2 nM"],
  ["AGUAUCACAGGAUAUACAUAGGUGAAAAAAGUAAAUCCACUACAUGAGGAUCACCCAUGUAGAAGGGUGAUACA [Ex2 Design 177: Random 4B]", "69.9 nM"],
  ["AAAAAGGUAGGAUAUACAUGAGGAUCACCCAUGUGAAAAGAAAAUAAGAAAAGAAAGUGUAGAAGGACCAAAAA [JL JSci Mod In the Red]", "33 nM"],
  ["AAAACACAUGAGGAUCACCCAUGUGAGGAUAUGCAUAAAAAAAAAAAAAAAAAAAAAUGCAGAAGGCACAUAAA [jn_camden]", "21 nM"],
  ["UCCUCACAUGAGGAUCACCCAUGUGAGGAUAUGUACAUCAGGAAAAAAAAACUGAUGUACAGAAGGCACAUGGA [Design 9: Super Stable G-C 2]", "15.9 nM"],
  ["AAGAUGUCAGGAUAUACAUAAAUAAAAAAUUAUGUUAAAACACAUGAGGAUCACCCAUGUAGAAGGGACAACAA [AJ 6]", "36.4 nM"],
  ["AAAAAACAUGAGGAUCACCCAUGUGAGGAUAUCAGUAGUCAGUCCUCGGAGUGAGUACUGAGAAGGCACAUAAA [Brourd 613 Mod 2- Jieux - Exclusion 1]", "65.9 nM"],
  ["AAGAAGAUAGGAUAUACAAAAUAAAAGAAAAGAAAGAAAGAACAUGAGGAUCACCCAUGUAGAAGGAUCAAGAA [Sehetepibre Amenemhat I]", "25 nM"],
  ["GAAAAUGGAGGAUAUACAUGAGGAUCACCCAUGUGUAAAAAAAAUUACACAAAAGAAAGUAGAAGGCCAUAAAA [Mat - Exclusion 3 - Mayanna mod - D107]", "66.4 nM"],
  ["GAAAAGCAAGGAUAUACAUGAGGAUCACCCAUGUGGAAUGGCGUGACCGAAAGAAAAGGUAGAAGGUGCACGUG [Ragetia]", "216 nM"],
  ["AAAAAGAUAGGAUAUACGAACAUGUCGAAAGACGUGAAGGGACAUGAGGAUCACCCAUGUAGAAGGAUUAAAAA [Mat - Exclusion 2 - JL mod - D89]", "41.9 nM"],
  ["AAGAACUCAGGAUAUACAUGAGGAUCACCCAUGUAAAAGAAAGAAAAGGGAAAGAAAAGUAGAAGGGAGAAGAA [Neferkheperure-waenre Amenhotep IV]", "32.7 nM"],
  ["AAGAAGUUAGGAUAUACAAAAUAAAAGAAAAGAAAGAAAGAACAUGAGGAUCACCCAUGUAGAAGGGACAAGAA [Nubkaure Amenemhat II]", "59.2 nM"],
  ["AGCACGUCAGGAUAUACGAAAAAAAAGGGUAAAAAAAACACACAUGAGGAUCACCCAUGUAGAAGGGACAAGCA [Diamond 94]", "66.8 nM"],
  ["CGCAAGUCAGGAUAUUCGACAGGUAAAUCAGUGGAUCAGAAGGAGAAGGGACAUGAGGAUCACCCAUGUAUGUA [JR_Exc004_Sub407]", "49.4 nM"],
  ["AGUCGGCGAGGAUAUACAUGAGGAUCACCCAUGUGAGAGAAAAAAGUGAGUUAGACAUGUAGAAGGCGCUGACA [JL Lego Mod 8]", "54 nM"]
]}

###

# Tested on: K4 kissing-loop RNA reporter;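 further: bound reporter read as fluorescence of individual clusters on recovered sequencing chips by microscopy, with normalized cluster intensities fitted with a binding model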
# test_method_notes: apparent KD of K4 kissing-loop reporter; higher = weaker reporter binding
# condition_summary: Eterna round: R107; input ligand: tryptophan 2.4 mM
property_label: apparent KD of K4 kissing-loop reporter (nM)

{"columns": ["sequence", "property_label", "endpoint_value"],
 "data": [
  ["UCAGAGAACGAAGGAUAUUGACCUGUUUUAUGCUAUGAGUGAUGUUCUUAGUAUCAGCGAGAUGAUCAAGAAGGUCGGGUUCGAC [theeternabot_sameState_KL_FMN_B_48]", "apparent KD of K4 kissing-loop reporter", 152],
  ["GGCUUGCUAGUGAUGUUAGCAUUUUCUGAAGGAGCGCGUGAAAACGCAGGUAGGUCGCAGAACCUUGCCAACUAUUUUAGUUGCC [Ex Arginine A K4 27]", "apparent KD of K4 kissing-loop reporter", 82.4],
  ["GGUAGCAUGGCGGCCGCCACUACUGACAGCUGUCUGUUCUGGGUACCAGGGAGUGAUGUUCCCGGUAGGACCGGGCCAUGCUACC", "apparent KD of K4 kissing-loop reporter", 266],
  ["ACCUACGAUCACAAAAGUGAUUGUAGGAUCUAGGAUAUGCUGAAAAGCAGAAGGAGAGUGAUGUUCUCAACUCACGAAAGUGAGA [FmnAX 1 #OpenEnded #K4Late]", "apparent KD of K4 kissing-loop reporter", 173],
  ["UAUACGAAGCAGUGAUGUUGCUUAUGAGAAGGAGCGCACGAAAGUGCAGGUAGGUCGCUCAGCCAUGUGGACGAAAACGUCCACA [whbob_SS_Arginine_A_sa110]", "apparent KD of K4 kissing-loop reporter", 93],
  ["CGCAGUGAUGUUGCGAGUUUGAUCAGGGAAGGAGCGGCUCAGAAGCCAGGUAGGUCGCCCACGCAGUGAUGUUGUGUAUUCGGGU [Exclusion Arginine A GF 1]", "apparent KD of K4 kissing-loop reporter", 79.3]
]}
